- Target Of Assay: T1, human 5T4-His protein (human, UniProt Q13641 32-355)
- T1 construct: also called recombinant 5T4 protein (human 5T4-his tag); human 5T4 protein; not shown: His tag
- T1 sequence (looked up): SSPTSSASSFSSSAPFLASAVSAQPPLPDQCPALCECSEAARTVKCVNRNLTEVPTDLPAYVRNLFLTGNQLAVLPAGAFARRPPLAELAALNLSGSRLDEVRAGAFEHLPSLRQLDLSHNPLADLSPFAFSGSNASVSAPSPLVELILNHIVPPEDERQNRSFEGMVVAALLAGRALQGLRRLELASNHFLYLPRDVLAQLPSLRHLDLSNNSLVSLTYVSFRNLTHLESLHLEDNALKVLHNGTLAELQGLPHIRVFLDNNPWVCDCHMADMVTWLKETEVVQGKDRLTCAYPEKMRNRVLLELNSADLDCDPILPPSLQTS
- Assay Explanation: SPR Biacore, Protein A capture, 50 nM 5T4-His
Measurement Kind: pKd
# pKd is unitless: minus log10 of the molar concentration; print number only

Binder	pKd
Hu159D5-8 (antibody, V domains shown, humanized) VH: EVQLVESGGGVVQPGRSLRLSCAASGFTFSNFGMHWVRQAPGKGLEWVAYISSGSSTFYYADSVKGRFTISRDNSKNTLYLQMNSLRAEDTAVYFCARSPAYYRYGLDYWGQGTTVTVSS VL: DIVMTQTPLSLSVTPGQPASISCRASQSVSSSTFSYMHWYQQKPGQPPQLLIKSSSNLESGVPDRFSGSGSGTDFTLKISRVEAEDVGVYYCQHSWEIPYTFGGGTKVEIK	8.38

Request: Look up pKd: Hu159D5-3 (antibody, V domains shown, humanized) VH: EVQLVESGGGVVQPGRSLRLSCAASGFTFSNFGMHWVRQAPGKGLEWVAYISSGSSTFYYADSVKGRFTISRDNSKNTLYLQMNSLRAEDTAVYYCARSPAYYRYGLDYWGQGTTVTVSS VL: DIVLTQTPLSLSVTPGQPASISCRASQSVSSSTFSYMHWYQQKPGQPPQLLIKSSSNLESGVPDRFSGSGSGTDFTLKISRVEAEDVGVYYCQHSWEIPYTFGGGTKVEIK
Result: 8.99

Request: Look up pKd: 159D5 chimeric antibody (antibody, V domains shown, chimeric mAb) VH: DVQLVESGGGLVQPGGSRKLSCTASGFTFSNFGMHWVRQAPETGLEWVAYISSGSSTFYYADSVKGRFTISRDNPKNTLFLQMTSLRSEDTAMYFCARSPAYYRYGLDYWGQGTTLTVSS VL: DIVLTQSPASLAVSLGQRATISCRASQSVSSSTFSYMHWYQQKPGQPPKLLIKSSSNLESGVPARFSGSGSGTDFTLNIHPVEEEDTATYYCQHSWEIPYTFGGGTKLEIK
Result: 9.21
